Attribute: fold change of affinity
Biological target: T1, Human CD3eg linker (human)
T1 construct: Single-chain construct; also called recombinant human CD3
T1 chain: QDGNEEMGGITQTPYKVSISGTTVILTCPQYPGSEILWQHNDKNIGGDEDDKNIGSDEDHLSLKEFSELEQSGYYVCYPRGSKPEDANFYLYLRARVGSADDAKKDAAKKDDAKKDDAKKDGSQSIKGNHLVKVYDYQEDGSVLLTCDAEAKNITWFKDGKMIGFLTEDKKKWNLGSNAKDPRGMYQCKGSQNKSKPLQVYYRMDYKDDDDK
Experiment: SPR; fold vs parent H183/L072
Kindly answer with a numeric value in fold, unit omitted.

// solved cases for fold change of affinity follow
binder | fold change of affinity / fold
H183/L072 VL T31R (antibody, name in Kabat numbering, V domains shown) VH: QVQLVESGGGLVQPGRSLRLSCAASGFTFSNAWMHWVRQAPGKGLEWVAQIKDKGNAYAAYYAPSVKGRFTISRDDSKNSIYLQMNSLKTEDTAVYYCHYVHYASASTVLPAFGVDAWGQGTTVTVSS VL: DIVMTQSPLSLPVTPGEPASISCQASQELVHMNRNRYLHWYQQKPGQAPRLLIYKVSNRFPGVPDRFSGSGSGTDFTLKISRVEAEDVGVYYCAQGTSVPFTFGQGTKLEIK | 0.4
H183/L072 VL N30F (antibody, name in Kabat numbering, V domains shown) VH: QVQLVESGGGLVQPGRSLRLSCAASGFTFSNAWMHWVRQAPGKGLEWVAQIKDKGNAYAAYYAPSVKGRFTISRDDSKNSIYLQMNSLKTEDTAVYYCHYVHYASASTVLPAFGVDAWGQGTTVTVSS VL: DIVMTQSPLSLPVTPGEPASISCQASQELVHMNRFTYLHWYQQKPGQAPRLLIYKVSNRFPGVPDRFSGSGSGTDFTLKISRVEAEDVGVYYCAQGTSVPFTFGQGTKLEIK | 0.9

Qu. Name the reported fold change of affinity value associated with the binder H183/L072 VL Y32E (antibody, name in Kabat numbering, V domains shown) VH: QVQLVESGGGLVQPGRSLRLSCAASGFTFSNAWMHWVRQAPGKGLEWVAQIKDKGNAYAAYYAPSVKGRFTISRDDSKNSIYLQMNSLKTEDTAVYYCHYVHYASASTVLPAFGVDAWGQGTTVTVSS VL: DIVMTQSPLSLPVTPGEPASISCQASQELVHMNRNTELHWYQQKPGQAPRLLIYKVSNRFPGVPDRFSGSGSGTDFTLKISRVEAEDVGVYYCAQGTSVPFTFGQGTKLEIK
Ans. 0

The measurements presented in this section are drawn from patent US20210388087A1.
